Field: Km. Provide a value for each of the proteins that follow.
# Substrate: O=C(O)CCC(=O)C1=CC=C[C@@H](O)[C@@H]1C(=O)O
# experimentNotes: purified protein
# Type: biochemical, Thermobifida fusca
# statedConditions: 50 mM Tris pH 8.0, 0.1 mM MnCl2, 25°C
Write down the numeric answer in µM and omit the unit.

Record T. fusca OSBS (Thermobifida fusca YX; R15A) (protein) MTGRAFAIPLRTRFAGITVREGMLVRGAAGWGEFSPFAEYGPRECARWWAACYEAAELGWPAPVRDTVPVNATVPAVGPEEAARIVASSGCTTAKVKVAERGQSEANDVARVEAVRDALGPRGRVRIDVNGAWDVDTAVRMIRLLDRFELEYVEQPCATVDELAEVRRRVSVPIAADESIRRAEDPLRVRDAEAADVVVLKVQPLGGVRAALRLAEECGLPVVVSSAVETSVGLAAGVALAAALPELPYACGLATLRLLHADVCDDPLLPVHGVLPVRRVDVSEQRLAEVEIDPAAWQARLAAARAAWEQVEREPGP . Reported Km: 7

Lab note: T. fusca OSBS (Thermobifida fusca YX; N71A) (protein) MTGRAFAIPLRTRFRGITVREGMLVRGAAGWGEFSPFAEYGPRECARWWAACYEAAELGWPAPVRDTVPVAATVPAVGPEEAARIVASSGCTTAKVKVAERGQSEANDVARVEAVRDALGPRGRVRIDVNGAWDVDTAVRMIRLLDRFELEYVEQPCATVDELAEVRRRVSVPIAADESIRRAEDPLRVRDAEAADVVVLKVQPLGGVRAALRLAEECGLPVVVSSAVETSVGLAAGVALAAALPELPYACGLATLRLLHADVCDDPLLPVHGVLPVRRVDVSEQRLAEVEIDPAAWQARLAAARAAWEQVEREPGP gave Km of 322
